Where these numbers come from: ChEMBL document CHEMBL1147861

Assay: Oral bioavailability in rat
Assay type: ADME, organism-based
Details: in vivo

| Sample smiles | bioavailability |
| --- | --- |
| Cc1nc(N[C@@H]2COC[C@@H]2C)nc(-n2ccnc2C)c1[N+](=O)[O-].Cl | 21% |
| Cc1nc(N[C@H]2CCOC[C@@H]2C)nc(-n2ccnc2C)c1[N+](=O)[O-] | 57% |

* * *

Assay: Clearance in rat
Assay type: ADME, organism-based
Settings: in vivo
As shown below, each of these compounds has a reported clearance value.
Measurement kind: clearance (L/h/kg)

| Sample smiles | Result value |
| --- | --- |
| Cc1nc(N[C@H]2CCOC[C@@H]2C)nc(-n2ccnc2C)c1[N+](=O)[O-] | 2.2 |
| Cc1nc(N[C@@H]2COC[C@@H]2C)nc(-n2ccnc2C)c1[N+](=O)[O-].Cl | 1.4 |
